Here the recorded growth is given for each entry.
System: OVCAR-4 ovarian
Method Notes: NCI-60 one-dose screen, 48 h (100 = growth as untreated, 0 = no growth, -100 = all killed)
Particulars: 10 µM unless noted
About 83,000 compounds went through this panel and 20% of them were active in at least one assay; those are over-represented in the sample as a whole.
A number alone suffices; assume %.

Use these answered entries as a reference point.
COc1ccc(/C=C/C(=O)c2ccc(NC(=O)CSc3nnc(-c4ccc(Cl)cc4)n3-c3ccccc3)cc2)cc1	99.5
CCCCc1n(Cc2ccc3ccccc3n2)cc[n+]1Cc1ccc2ccccc2n1	14
COc1ccc2cc(-c3nc(C)c(C(C)=O)c(-c4ccc(C)cc4)n3)ccc2c1	92

Request: Looking for the measured growth of CN(C)c1ccc(/C=N/Nc2nnc3n2N=C(c2ccc(Cl)cc2)CS3)cc1 , can you help?
Result: 98.8
